Molecular target: T1, P17-His protein (human CD40 antigen) (human, UniProt P25942 21-193, limits assumed)
T1 construct: also called human CD40 antigen (P17-His)
T1 sequence (P25942 other isoform, or with tags, fused parts or gaps limits assumed): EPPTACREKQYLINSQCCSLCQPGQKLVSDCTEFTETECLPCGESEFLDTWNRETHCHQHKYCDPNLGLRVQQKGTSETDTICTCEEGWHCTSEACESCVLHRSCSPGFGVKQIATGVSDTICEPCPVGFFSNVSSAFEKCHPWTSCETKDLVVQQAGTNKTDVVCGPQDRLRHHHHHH
Assay: BLI (Fortebio Octet RED96), antibody on Protein A sensor, P17-His 5-40 nM
quantity.measured: koff (s⁻¹)
Numbers only; they are read as s⁻¹.

Entry C8-10 antibody (antibody, V domains shown) VH: EVQLLESGGGLVRPGGSLRLSCAASGFTFGSYEMNWVRQAPGKGLEWVSYISSSGETTDYADSVKGRFTVSRDNSKNLLYLQMNSLRAEDTAVYYCARDVFFFDSSGFPGAYGMDVWGQGTMVTVSS VL: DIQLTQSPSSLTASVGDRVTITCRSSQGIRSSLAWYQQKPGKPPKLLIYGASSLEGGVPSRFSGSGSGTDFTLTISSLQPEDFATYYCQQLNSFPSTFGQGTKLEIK , koff reported as 0.00847

Data point: C8-7 antibody (antibody, V domains shown) VH: EVQLLESGGGLVRPGGSLRLSCAASGFTFGSYEMNWVRQAPGKGLEWVSYISSSGETTDYADSVKGRFTVSRDNSKNLLYLQMNSLRAEDTAVYYCARDVFFFDSSGDNHAYGMDVWGQGTMVTVSS VL: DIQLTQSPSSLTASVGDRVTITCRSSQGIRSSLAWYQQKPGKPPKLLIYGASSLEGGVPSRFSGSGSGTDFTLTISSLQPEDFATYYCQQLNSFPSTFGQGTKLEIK ; koff = 0.0111

Noted for C8-3 antibody (antibody, V domains shown) VH: EVQLLESGGGLVRPGGSLRLSCAASGFTAGSYEMNWVRQAPGKGLEWVSYISSSGETTDYADSVKGRFTVSRDNSKNLLYLQMNSLRAEDTAVYYCARDVFFFDSSGDNGAYGMDVWGQGTMVTVSS VL: DIQLTQSPSSLTASVGDRVTITCRSSQGIRSSLAWYQQKPGKPPKLLIYGASSLEVGVPSRFSGSGSGTDFTLTISSLQPEDFATYYCQQLNSFPSTFGQGTKLEIK : its koff reads 0.0111
